# procedure_details: Phase 2A study (Magnolia) in women with postpartum depression: ganaxolone plasma concentrations / pharmacokinetics
# experimental_conditions: female, human, plasma, iv, 180 ug/kg, AUC12-48, calculated from Table 1C; dose 180 μg/kg/hr (row order of Table 1C)

{"molecule": "CC(=O)[C@H]1CC[C@H]2[C@@H]3CC[C@H]4C[C@](C)(O)CC[C@]4(C)[C@H]3CC[C@]12C [ganaxolone, 3α-hydroxy-3β-methyl-5α-pregnan-20-one]", "unit_abbrev": "ng·h/mL", "AUC": 6980}

====

# procedure_details: Phase 2A study (Magnolia) in women with postpartum depression: ganaxolone plasma concentrations / pharmacokinetics
# experimental_conditions: female, human, plasma, intravenous, 210 μg/kg/hr, Mean average GNX Concentration, calculated for dose 210 μg/kg/hr; time 24 hr
property_label: concentration at 24 h

{"compound": "CC(=O)[C@H]1CC[C@H]2[C@@H]3CC[C@H]4C[C@](C)(O)CC[C@]4(C)[C@H]3CC[C@]12C [ganaxolone, 3α-hydroxy-3β-methyl-5α-pregnan-20-one]", "property_label": "concentration at 24 h", "result": "223 ng/mL"}
